experimental.system: T1, mUHRF1 V1 mLinker 2 V1* (P293A/P294A/P295A/L297A/R298A/N299A/T300A/G301A/K302A/S303A), full-length (mouse, UniProt Q8VDF2-1 1-782, P293A | P294A | P295A | L297A | R298A | N299A | T300A | G301A | K302A | S303A)
T1 construct: UHRF1, mouse, splicing variant V1, NCBI NP_001104550.1, with ten alanine substitutions in Linker 2; source: E. coli BL21(DE3) RIL, purified (HisPur Cobalt-Resin)
T1 sequence (looked up): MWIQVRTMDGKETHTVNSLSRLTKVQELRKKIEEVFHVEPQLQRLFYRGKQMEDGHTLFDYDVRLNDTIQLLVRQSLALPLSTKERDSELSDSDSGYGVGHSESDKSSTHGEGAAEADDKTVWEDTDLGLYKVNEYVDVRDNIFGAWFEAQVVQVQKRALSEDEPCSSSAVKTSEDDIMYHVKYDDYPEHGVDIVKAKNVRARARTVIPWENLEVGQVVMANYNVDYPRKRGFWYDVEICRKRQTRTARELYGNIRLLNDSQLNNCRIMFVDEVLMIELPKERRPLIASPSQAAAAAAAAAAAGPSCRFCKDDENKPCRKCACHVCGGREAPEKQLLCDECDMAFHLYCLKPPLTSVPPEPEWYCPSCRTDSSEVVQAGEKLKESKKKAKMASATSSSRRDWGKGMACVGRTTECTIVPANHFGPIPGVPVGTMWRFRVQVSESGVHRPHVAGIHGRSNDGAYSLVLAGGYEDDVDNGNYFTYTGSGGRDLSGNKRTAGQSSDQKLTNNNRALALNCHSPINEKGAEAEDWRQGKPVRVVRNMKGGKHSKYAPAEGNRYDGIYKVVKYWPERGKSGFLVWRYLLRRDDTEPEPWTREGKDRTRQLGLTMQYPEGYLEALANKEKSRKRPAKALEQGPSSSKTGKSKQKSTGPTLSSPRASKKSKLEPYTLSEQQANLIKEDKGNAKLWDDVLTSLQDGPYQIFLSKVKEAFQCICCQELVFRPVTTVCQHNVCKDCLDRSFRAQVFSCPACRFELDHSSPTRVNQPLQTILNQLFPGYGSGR
assay.name: fluorescence polarisation; FAM-labelled H3(1-15) peptide, recombinant protein titrated; RT; as described (ref. 28)
condition.context: both partners purified
readout.kind: Kd (µM)
Write the value in µM as a bare number.

Would you mind telling me what Kd value was observed for ARTKQTARKSTGGKA (fluorescein (FAM) on the N-terminus; K9 trimethylated, histone H3 aa 1-15; also called FAM-H3K9me3; source: synthetic peptide (Synpeptide Co., Ltd)) [FAM-H3(1-15)K9me3 peptide (N-terminally fluorescein-labelled)] ? 12.6
